Value source: ChEMBL document CHEMBL1151806

- System: Cryptococcus neoformans
- test: Antimicrobial activity against Cryptococcus neoformans ATCC 90113 by NCCLS method
- Format: functional, organism-based

{"columns": ["compound", "IC50"],
 "data": [
  ["C[C@H]1N[C@@H](CCCCCCCCCCC2=C[C@@H](CCCCCCCCCC[C@H]3CC[C@@H](O)[C@@H](C)N3)[C@@H]3CCCN3C2)CC[C@H]1O [JULIPROSOPINE]", "1.5 µg/mL"],
  ["C[C@@H]1N[C@H](CCCCCCCCCCc2cc(CCCCCCCCCC[C@@H]3CC[C@@H](O)[C@H](C)N3)c3[n+](c2)CCC3)CC[C@H]1O.[Cl-] [PROSOPILOSIDINE DIHYDROCHLORIDE]", "1.5 µg/mL"],
  ["C[C@H]1N[C@@H](CCCCCCCCCCC2=C[C@@H](CCCCCCCCCC[C@@H]3CC[C@H](O)[C@@H](C)N3)[C@@H]3CCCN3C2)CC[C@H]1O [ISOPROSOPILOSINE]", "0.4 µg/mL"],
  ["C[C@@H]1N[C@H](CCCCCCCCCCc2cc(CCCCCCCCCC[C@@H]3CC[C@H](O)[C@@H](C)N3)c3[n+](c2)CCC3)CC[C@H]1O.[Cl-] [PROSOPILOSIDINE]", "0.4 µg/mL"],
  ["C[C@H]1N[C@@H](CCCCCCCCCCC2=C[C@@H](CCCCCCCCCC[C@@H]3CC[C@H](O)[C@@H](C)N3)[C@@H]3CCCN3C2)CC[C@H]1O.Cl.Cl", "0.85 µg/mL"]
]}

---

# IC50 per record follows
- System: Cryptococcus neoformans
- test: Antimicrobial activity against Cryptococcus neoformans ATCC 90113 by NCCLS method
- Type: functional, organism-based
quantity_name: IC50 (µg/mL)

{"columns": ["smiles", "tested_system", "quantity_name", "observed"],
 "data": [
  ["C[C@@H]1N[C@H](CCCCCCCCCCc2cc(CCCCCCCCCC[C@H]3CC[C@@H](O)[C@@H](C)N3)c[n+]3c2CCC3)CC[C@H]1O", "Cryptococcus neoformans", "IC50", 0.55],
  ["C[C@@H]1N[C@H](CCCCCCCCCCC2=C[C@@H](CCCCCCCCCC[C@@H]3CC[C@@H](O)[C@H](C)N3)[C@@H]3CCCN3C2)CC[C@H]1O", "Cryptococcus neoformans", "IC50", 0.8],
  ["C[C@@H]1N[C@H](CCCCCCCCCCC2=C[C@@H](CCCCCCCCCC[C@@H]3CC[C@@H](O)[C@H](C)N3)[C@@H]3CCCN3C2)CC[C@H]1O.Cl.Cl", "Cryptococcus neoformans", "IC50", 2],
  ["C[C@@H]1[C@H](O)[C@@H](C)/C=C/C=C/C=C/C=C/C=C/C=C/C=C/[C@H](O[C@@H]2O[C@H](C)[C@@H](O)[C@H](N)[C@@H]2O)C[C@@H]2O[C@](O)(C[C@@H](O)C[C@@H](O)[C@H](O)CC[C@@H](O)C[C@@H](O)CC(=O)O[C@H]1C)C[C@H](O)[C@H]2C(=O)O", "Cryptococcus neoformans", "IC50", 0.45]
]}

---

- Tested on: Vero
- test: Cytotoxicity against african green monkey Vero cells at 4760 ng/mL
- Assay type: cell-based, Chlorocebus sabaeus

{"columns": ["compound", "IC50"],
 "data": [
  ["C[C@H]1N[C@@H](CCCCCCCCCCC2=C[C@@H](CCCCCCCCCC[C@@H]3CC[C@H](O)[C@@H](C)N3)[C@@H]3CCCN3C2)CC[C@H]1O.Cl.Cl", "Non-toxic"],
  ["C[C@@H]1CC[C@H]2[C@@H](C)C(=O)O[C@@H]3O[C@@]4(C)CC[C@@H]1[C@]32OO4 [ARTEMISININ]", "Non-toxic"],
  ["C[C@@H]1N[C@H](CCCCCCCCCCc2cc(CCCCCCCCCC[C@@H]3CC[C@@H](O)[C@H](C)N3)c3[n+](c2)CCC3)CC[C@H]1O.[Cl-] [PROSOPILOSIDINE DIHYDROCHLORIDE]", "Non-toxic"],
  ["C[C@@H]1N[C@H](CCCCCCCCCCC2=C[C@@H](CCCCCCCCCC[C@@H]3CC[C@@H](O)[C@H](C)N3)[C@@H]3CCCN3C2)CC[C@H]1O.Cl.Cl", "Non-toxic"],
  ["CCN(CC)CCCC(C)Nc1ccnc2cc(Cl)ccc12 (stereo not given) [CHLOROQUINE]", "Non-toxic"]
]}
